The origin of these recorded values is the supplement of paper PMC9112550.

Test system: Escherichia coli TOP10
Assay: shrunken log2 fold change of peptide-encoding DNA abundance (4.5 h post-induction vs induction); higher = less antimicrobial activity (less host growth inhibition)
Settings: time post-induction: 4.5 h; library: site-saturation at positions 5, 18, 19, 20
Returns fulfilled if the recorded shrunken log2 fold change is greater than or equal to -0.04, and not fulfilled otherwise.

Here are 5 sequences together with their reported answers.
RRIRIRPPRLPRPRPRPHESPRP; fulfilled
RRIRPRPPRLPRPRPRPQHLPRP; not fulfilled
RRIRSRPPRLPRPRPRPMAGPRP; fulfilled
RRIRARPPRLPRPRPRPYREPRP; fulfilled
RRIRRRPPRLPRPRPRPIINPRP; not fulfilled

Now let's try a different one.
Input line: API: above_or_equal(metric=shrunken log2 fold change, cutoff=-0.04) for item RRIRWRPPRLPRPRPRPSFMPRP
Output line: not fulfilled

----------
List of shrunken log2 fold change values.
Tested on: Escherichia coli TOP10
Assay: shrunken log2 fold change of peptide-encoding DNA abundance (4.5 h post-induction vs induction); higher = less antimicrobial activity (less host growth inhibition)
Settings: time post-induction: 4.5 h; library: site-saturation at positions 5, 18, 19, 20
Reply with just the number.

Some sequences with recorded shrunken log2 fold change:
RRIRERPPRLPRPRPRPWMHPRP; -0.126
RRIRGRPPRLPRPRPRPPPHPRP; 1.26
RRIRHRPPRLPRPRPRPKKFPRP; -0.123
RRIRHRPPRLPRPRPRPVAPPRP; 0.222
RRIRLRPPRLPRPRPRPGFCPRP; 0.272

# shrunken log2 fold change measured on Escherichia coli TOP10 for item RRIRERPPRLPRPRPRPTVVPRP = -0.188

For the sequence RRIRKRPPRLPRPRPRPVSHPRP , the measured shrunken log2 fold change on Escherichia coli TOP10 was 0.0254

Reported Escherichia coli TOP10 shrunken log2 fold change for item RRIRQRPPRLPRPRPRPRDRPRP was 0.399

----------
Tested on: Escherichia coli TOP10
Assay: shrunken log2 fold change of peptide-encoding DNA abundance (4.5 h post-induction vs induction); higher = less antimicrobial activity (less host growth inhibition)
Settings: time post-induction: 4.5 h; library: site-saturation at positions 5, 18, 19, 20
Each entry below carries its reported shrunken log2 fold change.

These recorded examples may help you get a feel for the data.
RRIRQRPPRLPRPRPRPCGGPRP; 0.257
RRIRRRPPRLPRPRPRPLEWPRP; 0.266
RRIRDRPPRLPRPRPRPTKHPRP; -0.0699

Next item in the queue.
Value of shrunken log2 fold change reported for the sequence RRIRKRPPRLPRPRPRPFRAPRP is 0.201

----------
Property: shrunken log2 fold change; scope: individual sequences
System: Escherichia coli TOP10;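 note: peptides expressed intracellularly from a pBAD plasmid library in pooled LB shake-flask culture, induced with 0.3% L-arabinose, DNA abundance read by NGS, three biological replicates, DESeq2 with apeglm shrinkage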
Assay: shrunken log2 fold change of peptide-encoding DNA abundance (4.5 h post-induction vs induction); higher = less antimicrobial activity (less host growth inhibition)
Conditions: time post-induction: 4.5 h; library: site-saturation at positions 5, 18, 19, 20
Respond using a number only.

Previously resolved entries follow.
RRIRNRPPRLPRPRPRPVYGPRP; -0.0867
RRIRFRPPRLPRPRPRPVCMPRP; -0.498
RRIRSRPPRLPRPRPRPHIFPRP; -0.197
RRIRMRPPRLPRPRPRPATMPRP; 0.256
RRIRIRPPRLPRPRPRPTIEPRP; -0.44
RRIRCRPPRLPRPRPRPTVFPRP; 0.197
RRIRQRPPRLPRPRPRPNQTPRP; -0.0346
RRIRCRPPRLPRPRPRPAYIPRP; -0.628
RRIRQRPPRLPRPRPRPHCVPRP; -0.0218
RRIRKRPPRLPRPRPRPEAYPRP; 0.0226

Lab entry: Escherichia coli TOP10 assay, sequence RRIRRRPPRLPRPRPRPPTNPRP , shrunken log2 fold change = 0.643

Item: RRIRVRPPRLPRPRPRPFEHPRP | System: Escherichia coli TOP10 | shrunken log2 fold change: -0.00133

# RRIRMRPPRLPRPRPRPGILPRP with Escherichia coli TOP10: shrunken log2 fold change is 0.0644

Log: Escherichia coli TOP10, sequence RRIRMRPPRLPRPRPRPASDPRP , shrunken log2 fold change = 0.869

For the sequence RRIRFRPPRLPRPRPRPVHIPRP , the measured shrunken log2 fold change on Escherichia coli TOP10 was 0.0681
